tested on: Calu-3 (Lung Adenocarcinoma); test: combination Emax (second highest fraction inhibited in the dose matrix, 72 h); higher = more inhibition; extreme values may be limits of the assay
Property: combination Emax; scope: individual compounds
metric: combination Emax

compound	numeric.result
Cc1c2c(nn1C)CSCc1cc(n(C)n1)CSc1cc(c3ccccc3c1)OCCCc1c(C(=O)O)n(C)c3c-2c(Cl)ccc13 [AZD5991] + CCN(CCO)CCCOc1ccc2c(Nc3cc(CC(=O)Nc4cccc(F)c4)[nH]n3)ncnc2c1 [AZD2811] (first compound max 1 µM, 7x7, partner max 1 µM)	0.17
COc1cccc(OCCCN)c1-c1cc(Nc2cnc(C#N)cn2)n[nH]1 [Prexasertib] + Cc1cc2ncnn2cc1Nc1ncc2c(n1)n(C1CCOCC1)c(=O)n2C [AZD7648] (first compound max 1 µM, 7x7, partner max 10 µM)	0.416
CS(=O)(=O)CCNCc1ccc(-c2ccc3ncnc(Nc4ccc(OCc5cccc(F)c5)c(Cl)c4)c3c2)o1 [Lapatinib] + Cn1cnc2c(F)c(Nc3ccc(Br)cc3Cl)c(C(=O)NOCCO)cc21 [Selumetinib] (first compound max 10 µM, 7x7, partner max 10 µM)	0.933
CC(=O)c1c(C)c2cnc(Nc3ccc(N4CCNCC4)cn3)nc2n(C2CCCC2)c1=O [Palbociclib] + Cc1c2c(nn1C)CSCc1cc(n(C)n1)CSc1cc(c3ccccc3c1)OCCCc1c(C(=O)O)n(C)c3c-2c(Cl)ccc13 [AZD5991] (first compound max 10 µM, 7x7, partner max 1 µM)	0.219
CC1(C)CCC(CN2CCN(c3ccc(C(=O)NS(=O)(=O)c4ccc(NCC5CCOCC5)c([N+](=O)[O-])c4)c(Oc4cnc5[nH]ccc5c4)c3)CC2)=C(c2ccc(Cl)cc2)C1 [Venetoclax] + C[C@@H](Nc1cc(F)cc(F)c1)c1cc(C(=O)N(C)C)cc2c(=O)cc(N3CCOCC3)oc12 [AZD8186] (first compound max 1 µM, 7x7, partner max 3 µM)	0.0911
Cc1c2c(nn1C)CSCc1cc(n(C)n1)CSc1cc(c3ccccc3c1)OCCCc1c(C(=O)O)n(C)c3c-2c(Cl)ccc13 [AZD5991] + C[C@@H](Nc1cc(F)cc(F)c1)c1cc(C(=O)N(C)C)cc2c(=O)cc(N3CCOCC3)oc12 [AZD8186] (first compound max 1 µM, 7x7, partner max 3 µM)	0.175
CC1(C)CCC(CN2CCN(c3ccc(C(=O)NS(=O)(=O)c4ccc(NCC5CCOCC5)c([N+](=O)[O-])c4)c(Oc4cnc5[nH]ccc5c4)c3)CC2)=C(c2ccc(Cl)cc2)C1 [Venetoclax] + C1CN(CCC1(C(=O)N[C@@H](CCO)C2=CC=C(C=C2)Cl)N)C3=NC=NC4=C3C=CN4 [Capivasertib] (first compound max 1 µM, 7x7, partner max 3 µM)	0.174

----------
system: TE-15 (Esophageal Squamous Cell Carcinoma); assay: Bliss excess, mean over the matrix (fraction); higher = more synergy;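 also: after 72 h of two-drug dosing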
metric: Bliss excess

compound	numeric.result
Cc1c2c(nn1C)CSCc1cc(n(C)n1)CSc1cc(c3ccccc3c1)OCCCc1c(C(=O)O)n(C)c3c-2c(Cl)ccc13 [AZD5991] + CCN(CCO)CCCOc1ccc2c(Nc3cc(CC(=O)Nc4cccc(F)c4)[nH]n3)ncnc2c1 [AZD2811] (first compound max 1 µM, 7x7, partner max 1 µM)	0.0649
Cc1c2c(nn1C)CSCc1cc(n(C)n1)CSc1cc(c3ccccc3c1)OCCCc1c(C(=O)O)n(C)c3c-2c(Cl)ccc13 [AZD5991] + Cc1cc2ncnn2cc1Nc1ncc2c(n1)n(C1CCOCC1)c(=O)n2C [AZD7648] (first compound max 1 µM, 7x7, partner max 10 µM)	-0.0325

----------
system: NCI-H2085 (Non-Small Cell Lung Carcinoma); assay: combination Emax (second highest fraction inhibited in the dose matrix, 72 h); higher = more inhibition; extreme values may be limits of the assay
Where combination Emax equals or exceeds 0.6, the correct label is Satisfied; where it does not, the label is Not satisfied.

molecule	label
COc1cccc(OCCCN)c1-c1cc(Nc2cnc(C#N)cn2)n[nH]1 [Prexasertib] + CCc1c2c(nc3ccc(O)cc13)-c1cc3c(c(=O)n1C2)COC(=O)[C@]3(O)CC [SN-38] (first compound max 1 µM, 7x7, partner max 0.3 µM)	Satisfied
COc1cc2ncnc(Nc3ccc(F)c(Cl)c3)c2cc1OCCCN1CCOCC1 [Gefitinib] + CC(C)n1c(=O)n(C)c2cnc3cc(F)c(-c4ccc(OCCCN5CCCCC5)nc4)cc3c21 [AZD1390] (first compound max 10 µM, 7x7, partner max 0.3 µM)	Not satisfied
Cc1c2c(nn1C)CSCc1cc(n(C)n1)CSc1cc(c3ccccc3c1)OCCCc1c(C(=O)O)n(C)c3c-2c(Cl)ccc13 [AZD5991] + Cn1cnc2c(F)c(Nc3ccc(Br)cc3Cl)c(C(=O)NOCCO)cc21 [Selumetinib] (first compound max 1 µM, 7x7, partner max 3 µM)	Satisfied
C[C@@H]1COCCN1c1cc(C2([S@](C)(=N)=O)CC2)nc(-c2ccnc3[nH]ccc23)n1 [AZD6738] + O=C(c1cc(Cc2n[nH]c(=O)c3ccccc23)ccc1F)N1CCN(C(=O)C2CC2)CC1 [Olaparib] (first compound max 10 µM, 7x7, partner max 10 µM)	Not satisfied
COc1cccc(OCCCN)c1-c1cc(Nc2cnc(C#N)cn2)n[nH]1 [Prexasertib] + C=CCn1c(=O)c2cnc(Nc3ccc(N4CCN(C)CC4)cc3)nc2n1-c1cccc(C(C)(C)O)n1 [AZD1775] (first compound max 1 µM, partner max 1 µM)	Satisfied
O=C(c1cc(Cc2n[nH]c(=O)c3ccccc23)ccc1F)N1CCN(C(=O)C2CC2)CC1 [Olaparib] + CN(CC[C@H](CSC1=CC=CC=C1)NC2=C(C=C(C=C2)S(=O)(=O)NC(=O)C3=CC=C(C=C3)N4CCC(CC4)[C@H](C5=CC=CC=C5C6=CC=C(C=C6)Cl)O)S(=O)(=O)C(F)(F)F)CCO [AZD4320] (first compound max 10 µM, 7x7, partner max 1 µM)	Not satisfied

----------
system: TCCSUP (Bladder Carcinoma); assay: combination Emax (second highest fraction inhibited in the dose matrix, 72 h); higher = more inhibition; extreme values may be limits of the assay
metric: combination Emax

compound	metric	numeric.result
C=CCn1c(=O)c2cnc(Nc3ccc(N4CCN(C)CC4)cc3)nc2n1-c1cccc(C(C)(C)O)n1 [AZD1775] + C[C@@H]1COCCN1C2=NC(=NC(=C2)C3(CC3)[S@](=N)(=O)C)C4=C5C=CNC5=NC=C4 [AZD6738] (first compound max 1 µM, partner max 10 µM)	combination Emax	0.755
NC1(C(=O)N[C@@H](CCO)c2ccc(Cl)cc2)CCN(c2ncnc3[nH]ccc23)CC1 [Capivasertib] + CC(=O)c1c(C)c2cnc(Nc3ccc(N4CCNCC4)cn3)nc2n(C2CCCC2)c1=O [Palbociclib] (first compound max 10 µM, 7x7, partner max 10 µM)	combination Emax	0.317
CC1(C)CCC(CN2CCN(c3ccc(C(=O)NS(=O)(=O)c4ccc(NCC5CCOCC5)c([N+](=O)[O-])c4)c(Oc4cnc5[nH]ccc5c4)c3)CC2)=C(c2ccc(Cl)cc2)C1 [Venetoclax] + C[C@@H]1COCCN1C2=NC(=NC(=C2)C3(CC3)[S@](=N)(=O)C)C4=C5C=CNC5=NC=C4 [AZD6738] (first compound max 1 µM, 7x7, partner max 10 µM)	combination Emax	0.638
Cc1c2c(nn1C)CSCc1cc(n(C)n1)CSc1cc(c3ccccc3c1)OCCCc1c(C(=O)O)n(C)c3c-2c(Cl)ccc13 [AZD5991] + C[C@@H]1COCCN1C2=NC(=NC(=C2)C3(CC3)[S@](=N)(=O)C)C4=C5C=CNC5=NC=C4 [AZD6738] (first compound max 1 µM, 7x7, partner max 10 µM)	combination Emax	0.648

----------
system: Hs-578-T (Breast Carcinoma); assay: combination Emax (second highest fraction inhibited in the dose matrix, 72 h); higher = more inhibition; extreme values may be limits of the assay
Property: combination Emax; scope: individual compounds

compound	combination Emax
Cc1c2c(nn1C)CSCc1cc(n(C)n1)CSc1cc(c3ccccc3c1)OCCCc1c(C(=O)O)n(C)c3c-2c(Cl)ccc13 [AZD5991] + C[C@@H]1COCCN1C2=NC(=NC(=C2)C3(CC3)[S@](=N)(=O)C)C4=C5C=CNC5=NC=C4 [AZD6738] (first compound max 1 µM, 7x7, partner max 10 µM)	0.891
CN(CCO)CC[C@H](CSc1ccccc1)Nc1ccc(S(=O)(=O)NC(=O)c2ccc(N3CCC([C@@H](O)c4ccccc4-c4ccc(Cl)cc4)CC3)cc2)cc1S(=O)(=O)C(F)(F)F [AZD4320] + C[C@@H](Nc1cc(F)cc(F)c1)c1cc(C(=O)N(C)C)cc2c(=O)cc(N3CCOCC3)oc12 [AZD8186] (first compound max 1 µM, 7x7, partner max 3 µM)	0.874
CN(CCO)CC[C@H](CSc1ccccc1)Nc1ccc(S(=O)(=O)NC(=O)c2ccc(N3CCC([C@@H](O)c4ccccc4-c4ccc(Cl)cc4)CC3)cc2)cc1S(=O)(=O)C(F)(F)F [AZD4320] + Cc1cc2ncnn2cc1Nc1ncc2c(n1)n(C1CCOCC1)c(=O)n2C [AZD7648] (first compound max 1 µM, 7x7, partner max 10 µM)	0.63
